Measured values drawn from ChEMBL document CHEMBL1681786 for this set.

test_system: Human immunodeficiency virus type 1 integrase (Human immunodeficiency virus 1)
Sequence (Q7ZJM1 whole entry): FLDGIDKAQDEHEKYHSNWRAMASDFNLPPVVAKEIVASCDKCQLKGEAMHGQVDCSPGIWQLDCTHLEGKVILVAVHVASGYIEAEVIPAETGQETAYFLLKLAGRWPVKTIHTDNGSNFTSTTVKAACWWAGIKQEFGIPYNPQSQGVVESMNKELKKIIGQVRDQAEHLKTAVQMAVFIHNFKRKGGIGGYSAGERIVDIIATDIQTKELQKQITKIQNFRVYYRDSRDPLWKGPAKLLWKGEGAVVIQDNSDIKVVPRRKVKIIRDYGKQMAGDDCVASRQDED
experiment: Inhibition of Human immunodeficiency virus 1 integrase strand transfer activity after 30 mins by polyacrylamide gel electrophoresis
pIC50: −log10 of the molar value.

| mol | relation_symbol | pIC50 |
| --- | --- | --- |
| O=C(O)c1cc(F)cc(C(=O)/C=C/c2c(Cl)ccc(Cl)c2Cl)c1O | = | 4.41 |
| O=C(O)c1cc(Br)cc(C(=O)/C=C/c2cccc(Cl)c2Cl)c1O | = | 4.72 |
| O=C(O)c1cc(Cl)cc(C(=O)/C=C/c2cc(Cl)ccc2Cl)c1O | = | 4.60 |
| O=C(O)c1cc(Br)cc(C(=O)/C=C/c2cccc(Cl)c2)c1O | = | 5.05 |
| O=C(O)c1cc(Cl)cc(C(=O)/C=C/c2ccc(Cl)c(Cl)c2)c1O | = | 4.39 |
| O=C(O)c1cc(Br)cc(C(=O)/C=C/c2ccccc2-c2ccco2)c1O | = | 4.80 |
| O=C(O)c1cc(Br)cc(C(=O)/C=C/c2c(Cl)ccc(Cl)c2Cl)c1O | > | 5.43 |
| O=C(O)c1cc(Br)cc(C(=O)/C=C/c2ccccc2F)c1O | = | 4.49 |
| O=C(O)c1cc(Br)cc(C(=O)/C=C/c2ccsc2)c1O | = | 4.74 |
| O=C(O)c1cc(Cl)cc(C(=O)/C=C/c2c(Cl)ccc(Cl)c2Cl)c1O | = | 4.52 |
| O=C(O)c1cc(F)cc(C(=O)CCc2cc(Cl)ccc2Cl)c1O | = | 4.24 |
| COc1ccc(/C=C/C(=O)c2cc(Br)cc(C(=O)O)c2O)c(OC)c1OC | = | 4.29 |
| O=C(O)c1cc(Br)cc(C(=O)/C=C/c2cccc(Br)c2)c1O | = | 4.74 |
| O=C(O)c1cc(Br)cc(C(=O)/C=C/c2ccc(Oc3ccc(Cl)cc3)cc2)c1O | = | 4.80 |
| O=C(O)c1cc(Br)cc(C(=O)/C=C/c2cccc([N+](=O)[O-])c2)c1O | = | 4.49 |
| O=C(O)c1cc(Br)cc(C(=O)NCc2ccc(F)cc2)c1O | = | 4.82 |
| O=C(O)c1cc(Br)cc(C(=O)/C=C/c2cc(Cl)cc(Cl)c2Cl)c1O | = | 4.89 |
| O=C(O)c1cc(Br)cc(C(=O)/C=C/c2cccc(F)c2)c1O | = | 4.23 |
| COc1ccc(/C=C/C(=O)c2cc(Br)cc(C(=O)O)c2O)c(Cl)c1OC | = | 4.12 |
| Cc1cccc(C(=O)NCc2ccc(F)cc2)c1O | < | 4.00 |
| O=C(O)c1cc(Br)cc(C(=O)/C=C/c2ccc(I)cc2)c1O | = | 4.46 |
| O=C(O)c1cc(Br)cc(C(=O)/C=C/c2cccc(Oc3ccc(Cl)cc3)c2)c1O | = | 4.74 |
